Target: T1, human CLDN18.2 (human)
T1 construct: also called claudin18.2
Assay: FACS, U2OS-CLDN18.2 cells
Consider the following binders and their measured EC50 readings.
Reported endpoint: EC50 (nM)

• chimeric antibody xi22F12 (antibody, human IgG1, kappa, V domains shown, Mouse variable regions on human IgG1/kappa; defucosylated, expressed in FUT8-knockout CHO-S cells; also called chimeric 22F12) VH: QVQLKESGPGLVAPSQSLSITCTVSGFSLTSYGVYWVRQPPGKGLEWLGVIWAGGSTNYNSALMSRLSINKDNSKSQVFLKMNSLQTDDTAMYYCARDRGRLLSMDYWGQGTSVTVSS VL: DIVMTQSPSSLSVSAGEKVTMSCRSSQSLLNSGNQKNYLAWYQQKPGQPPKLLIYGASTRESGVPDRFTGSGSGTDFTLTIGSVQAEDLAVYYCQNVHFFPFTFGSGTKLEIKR = 25.1
• chimeric antibody xi10D8 (antibody, human IgG1, kappa, V domains shown, Mouse variable regions on human IgG1/kappa; defucosylated, expressed in FUT8-knockout CHO-S cells; also called chimeric 10D8) VH: QIQLAQSGPELKKPGETVKVSCKASGYTFKNYGMNWVKQAPGKGLKWMGWININTGEPRYAEEFKGRIAFSLETSASTAYLLINNLKNEDTATYFCARYGYGNSFPYWGQGTLVTVSA VL: DIVMTQSPSSLTVTVGEKVTMSCKSSQSLLNSGNQRNYLTWYQQKPGQPPKLLIYWASTRESGVPDRFTGSGSGTAFTLTVSSVQAEDLAVYYCQNDYSYPLTFGAGTKLEMKR = 19.5
• chimeric antibody xi28G3 (antibody, human IgG1, kappa, V domains shown, Mouse variable regions on human IgG1/kappa; defucosylated, expressed in FUT8-knockout CHO-S cells; also called chimeric 28G3) VH: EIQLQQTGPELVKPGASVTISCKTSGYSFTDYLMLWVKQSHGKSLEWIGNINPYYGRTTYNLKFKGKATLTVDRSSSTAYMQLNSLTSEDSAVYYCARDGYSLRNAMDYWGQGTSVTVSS VL: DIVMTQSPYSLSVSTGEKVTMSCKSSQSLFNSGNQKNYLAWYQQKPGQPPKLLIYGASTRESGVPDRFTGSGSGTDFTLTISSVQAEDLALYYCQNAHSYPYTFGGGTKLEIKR = 7.78
• IMAB362 (antibody, human IgG1, kappa, V domains shown, Positive control, prepared in-house; also called Claudiximab; TMAB362 [sic]) VH: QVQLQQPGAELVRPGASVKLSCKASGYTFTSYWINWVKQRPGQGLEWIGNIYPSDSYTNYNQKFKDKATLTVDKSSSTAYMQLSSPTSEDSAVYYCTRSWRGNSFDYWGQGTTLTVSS VL: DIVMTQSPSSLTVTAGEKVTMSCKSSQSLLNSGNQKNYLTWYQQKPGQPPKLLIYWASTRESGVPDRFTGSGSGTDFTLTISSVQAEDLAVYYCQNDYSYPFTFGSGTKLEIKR = 16

Just for reference, patent US20240409629A1 is where these values come from.
